experimental.target: Ubiquitin carboxyl-terminal hydrolase 8 (Homo sapiens) (UniProt P40818)
Sequence (P40818 whole entry, looked up): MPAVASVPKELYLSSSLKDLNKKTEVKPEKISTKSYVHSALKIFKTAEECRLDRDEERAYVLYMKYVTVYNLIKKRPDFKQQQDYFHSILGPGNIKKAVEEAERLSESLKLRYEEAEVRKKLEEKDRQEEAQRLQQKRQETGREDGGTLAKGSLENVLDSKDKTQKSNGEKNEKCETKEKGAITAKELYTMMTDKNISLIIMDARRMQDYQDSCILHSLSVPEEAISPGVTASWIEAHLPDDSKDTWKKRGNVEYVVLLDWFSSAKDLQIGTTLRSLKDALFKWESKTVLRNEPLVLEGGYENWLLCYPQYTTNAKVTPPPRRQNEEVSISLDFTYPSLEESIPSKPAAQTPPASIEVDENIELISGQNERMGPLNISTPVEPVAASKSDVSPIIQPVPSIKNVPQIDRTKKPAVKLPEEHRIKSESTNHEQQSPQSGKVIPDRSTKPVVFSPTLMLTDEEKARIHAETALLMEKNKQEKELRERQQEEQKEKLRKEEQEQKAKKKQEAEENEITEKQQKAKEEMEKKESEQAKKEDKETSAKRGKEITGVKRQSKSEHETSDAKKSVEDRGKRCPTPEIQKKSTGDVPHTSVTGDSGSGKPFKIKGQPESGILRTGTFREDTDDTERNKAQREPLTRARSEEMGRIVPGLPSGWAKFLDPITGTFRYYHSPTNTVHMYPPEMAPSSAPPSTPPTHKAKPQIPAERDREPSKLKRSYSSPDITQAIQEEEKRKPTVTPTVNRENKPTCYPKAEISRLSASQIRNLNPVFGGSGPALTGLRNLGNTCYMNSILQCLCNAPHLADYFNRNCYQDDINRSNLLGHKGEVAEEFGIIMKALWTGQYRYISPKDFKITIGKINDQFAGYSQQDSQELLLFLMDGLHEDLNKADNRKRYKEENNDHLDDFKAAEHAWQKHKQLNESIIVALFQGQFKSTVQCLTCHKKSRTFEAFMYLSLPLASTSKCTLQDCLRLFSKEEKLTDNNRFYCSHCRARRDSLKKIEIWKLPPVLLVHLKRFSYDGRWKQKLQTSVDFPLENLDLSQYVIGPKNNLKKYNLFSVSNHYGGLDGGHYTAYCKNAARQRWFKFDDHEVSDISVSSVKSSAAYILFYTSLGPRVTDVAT
test.protocol: blocks human USP8 ubiquitin-rhodamine cleavage (AID 1645853)
condition: purified USP8, Ub-rhodamine cleavage fluorescence, 30 min; at 20 µM; hits give high values
Out of some 47,000 compounds screened, about 2,000 (4.3%) were called active. This is one part of a sample in which actives are shown more often than they occur.
measured.property: inhibition (%)
Reply with just the number (in %).

Solved cases (3 shown):
> print(dat)
                                   compound  unit.name    val
1  O=C(Cc1csc(NC(=O)c2ccc(=O)[nH]c2)n1)NCc1ccco1          %  -11.3
2  C[C@H](NC(=O)c1ccc2c(c1)OCO2)c1nc2cc(-c3ccc(F)cc3)ncn2n1          %     18
3  CNc1nc(C2CCCN(C(C)=O)C2)nc2c1CCN(C(=O)c1oc3ccccc3c1C)C2 (stereo unspecified)          %  -2.25

*Q* Provide inhibition, tested on Ubiquitin carboxyl-terminal hydrolase 8 (Homo sapiens) (UniProt P40818), for O=C(C1CC1)N1CC[C@@H]2Oc3ccccc3S(=O)(=O)N(Cc3ccccc3)[C@H]2CC1 .
*A* -86.6

*Q* Provide inhibition, system Ubiquitin carboxyl-terminal hydrolase 8 (Homo sapiens) (UniProt P40818), entry Cc1cc(Cl)ccc1OCCCC(=O)NCc1ccccn1
*A* -25

*Q* Look up and report inhibition, with Ubiquitin carboxyl-terminal hydrolase 8 (Homo sapiens) (UniProt P40818) as system, for CC1=C(C(=O)Nc2ccccc2)C(c2cccs2)n2ncnc2N1 (stereo unspecified)
*A* -32.6

*Q* Give Ubiquitin carboxyl-terminal hydrolase 8 (Homo sapiens) (UniProt P40818) inhibition for the following compound: Cc1cc(=O)n(CC(=O)NCc2ccccc2)c(N2CCCC2)n1
*A* 2.35

*Q* # return inhibition for CCS(=O)(=O)N1CC(=O)N(c2cccc(OC)c2)C(C)(C(=O)NCc2ccccc2)C1 (stereo unspecified) , test system: Ubiquitin carboxyl-terminal hydrolase 8 (Homo sapiens) (UniProt P40818)
*A* -0.355
